Data credit: PubChem BioAssay (Tox21)

# system: Cytochrome P450 3A4 (Homo sapiens) (UniProt P08684)
# Sequence (P08684 whole entry, looked up): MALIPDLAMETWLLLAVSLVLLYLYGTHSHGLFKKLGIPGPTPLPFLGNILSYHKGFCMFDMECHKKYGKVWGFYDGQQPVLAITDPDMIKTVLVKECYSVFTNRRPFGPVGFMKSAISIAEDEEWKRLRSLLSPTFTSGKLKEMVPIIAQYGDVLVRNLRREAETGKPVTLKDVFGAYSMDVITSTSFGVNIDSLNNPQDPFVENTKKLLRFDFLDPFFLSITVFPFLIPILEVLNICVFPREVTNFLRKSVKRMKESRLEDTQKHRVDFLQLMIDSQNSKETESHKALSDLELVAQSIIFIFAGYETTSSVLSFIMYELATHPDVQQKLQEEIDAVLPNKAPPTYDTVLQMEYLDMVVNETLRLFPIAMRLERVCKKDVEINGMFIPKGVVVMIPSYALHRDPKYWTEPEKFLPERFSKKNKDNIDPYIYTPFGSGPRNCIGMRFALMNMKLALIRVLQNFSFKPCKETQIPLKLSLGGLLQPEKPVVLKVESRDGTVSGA
# test_details: Cytochrome P450 Family 3 Subfamily A Member 4 (CYP3A4) small molecule antagonists: luciferase reporter qHTS assay (AID 1671201); note: nearly all actives have a fitted effect of over 50% in size
# measurement_setup: P450-Glo CYP3A4 enzyme, luciferin luminescence, 1 h; series mostly up to 115 µM
Inconclusive results are not listed. Active and inactive are the calls of the source. Calls come from the whole dose curve; as a rule, active = well fitted inhibition curve with a large enough effect in the repeat runs; inconclusive = weak or mixed curves; inactive = no such curve, though single readings can be large or run the other way.
Return exactly one item of active, inactive

C[C@]12C=CC(=O)C=C1CC[C@H]1[C@@H]3C[C@@H](O)[C@](O)(C(=O)CO)[C@@]3(C)C[C@H](O)[C@@]12F: inactive
Cc1ccc(N)c([N+](=O)[O-])c1: inactive
Cc1ccc(C(C)(C)C)cc1: inactive
CC(=O)O[C@]1(C(C)=O)CC[C@H]2[C@@H]3C=C(Cl)C4=CC(=O)CC[C@]4(C)[C@H]3CC[C@@]21C: inactive
c1ccc2c(c1)ccc1cc3c(ccc4ccccc43)cc12: inactive
OCCNCCO: inactive

Query string: How did this test come out for `Clc1ccc(Sc2cc(Cl)c(Cl)cc2Cl)cc1` ?
Result string: inactive

Query string: How did this test come out for `O=S1(=O)CCCO1` ?
Result string: inactive

Query string: How did this test come out for `Cc1ccc(C(C)(C)C)c(O)c1` ?
Result string: inactive

Query string: How did this test come out for `CCCOCCO` ?
Result string: inactive

Query string: How did this test come out for `CC(C)=CCO` ?
Result string: inactive
